This collection of values is drawn from patent US7652020B2.

Molecular target: purified catalytic domain of recombinant human TACE (rhTACEc) (Homo sapiens, UniProt P78536, N452Q/S266A)
Construct: Residue 215 to 477 with two mutation (S266A and N452Q) and a 6×His tail; 6xHis (C); made in house; host or cells: baculovirus/Hi5 insect cells
Sequence (P78536 215-477 S266A/N452Q): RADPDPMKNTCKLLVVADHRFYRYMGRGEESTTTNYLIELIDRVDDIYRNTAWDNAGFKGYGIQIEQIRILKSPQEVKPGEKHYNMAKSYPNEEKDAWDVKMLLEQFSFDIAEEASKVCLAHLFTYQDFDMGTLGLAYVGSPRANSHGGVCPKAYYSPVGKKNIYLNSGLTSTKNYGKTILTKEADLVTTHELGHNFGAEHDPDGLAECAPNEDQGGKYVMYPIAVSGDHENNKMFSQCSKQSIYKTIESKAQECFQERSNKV
Assay: TACE kinetic assay: cleavage of internally quenched peptide substrate SPDL-3, fluorescence
Assay type: biochemical
Conditions: TACE, representative compounds, numeric values; read-out: Ki
pKi: −log10 of the molar value.
measurement.label: pKi

stdin: Fill in the blank: the reported pKi of CNc1nc([C@H]2c3ccccc3CN2C(=O)[C@H](O)[C@@H](O)C(=O)N[C@H](C)c2ccc(-n3cccn3)cc2)cs1 is ____.
stdout: 9.30

a. C[C@@H](NC(=O)[C@H](O)[C@@H](O)C(=O)N1Cc2ccccc2C1)c1ccc(-c2ccsc2)cc1
b. Cc1cccc(C)c1Cc1csc(CNC(=O)[C@H](O)[C@@H](O)C(=O)N2CCCC2c2cccc(CN3CCCC3)c2)n1 (stereo partly shown)
c. C[C@@H](NC(=O)[C@H](O)[C@@H](O)C(=O)N1CCC[C@@H]1c1cccc(Cl)c1)c1ccc(-n2cccn2)cc1 [drawing 1304]
stdin: Returns the items ordered by pKi, from maximum to minimum. Please reply with the labels ordered as requested. Many thanks.
stdout: c, b, a
(c: 9.10, b: 8.85, a: 8.42)
